# target entity: UniProtKB P14618
# Sequence (P14618 whole entry): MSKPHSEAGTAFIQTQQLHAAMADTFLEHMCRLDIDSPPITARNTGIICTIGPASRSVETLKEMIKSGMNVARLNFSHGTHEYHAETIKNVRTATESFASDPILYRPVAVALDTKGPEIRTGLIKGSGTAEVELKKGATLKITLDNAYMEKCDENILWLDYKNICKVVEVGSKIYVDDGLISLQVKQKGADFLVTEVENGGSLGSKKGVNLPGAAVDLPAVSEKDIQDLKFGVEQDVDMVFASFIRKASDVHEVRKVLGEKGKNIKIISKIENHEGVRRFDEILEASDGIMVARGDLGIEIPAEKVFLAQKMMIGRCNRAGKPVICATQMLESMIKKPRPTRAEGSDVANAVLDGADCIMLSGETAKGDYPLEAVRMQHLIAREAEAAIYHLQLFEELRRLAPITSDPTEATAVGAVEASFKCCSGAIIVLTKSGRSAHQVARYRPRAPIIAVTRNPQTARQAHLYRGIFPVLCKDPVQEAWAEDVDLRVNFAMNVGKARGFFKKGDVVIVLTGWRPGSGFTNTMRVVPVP
# experimental protocol: PKM2 activation biochemical assay (AC50 / max. response vs fructose 1,6-bisphosphate)
# conditions: % maximum response in a biochemical assay as compared with Fructose 1,6-bisphosphate
Below, each entry is listed with its recorded Max. Resp. (%).

smiles	target entity	Max. Resp. (%)
CO[C@H]1CC[C@H](N(Cc2ccccc2F)C(=O)c2cc(C(F)(F)F)n[nH]2)CC1	UniProtKB P14618	89%
CO[C@H]1CC[C@H](N(Cc2ncccc2Cl)C(=O)c2cc(C(F)(F)F)n[nH]2)CC1	UniProtKB P14618	48%
Nc1cccc(CN(CCN2CCS(=O)(=O)CC2)C(=O)c2cc(C(F)(F)F)n[nH]2)c1	UniProtKB P14618	91%
O=C(c1cc(C(F)(F)F)n[nH]1)N(CCN1CCS(=O)(=O)CC1)Cc1ccccc1F	UniProtKB P14618	92%
